system: PEO1 (Ovarian Carcinoma); assay: combination Emax (second highest fraction inhibited in the dose matrix, 72 h); higher = more inhibition; extreme values may be limits of the assay
Reported combination Emax values follow for various compounds

# annotated cases, reported combination Emax shown
What is its combination Emax for PEO1 (Ovarian Carcinoma)? Entry: C[C@@H](Oc1cc(-c2cnn(C3CCNCC3)c2)cnc1N)c1c(Cl)ccc(F)c1Cl [Crizotinib] + Cn1cnc2c(F)c(Nc3ccc(Br)cc3Cl)c(C(=O)NOCCO)cc21 [Selumetinib] (first compound max 10 µM, 7x7, partner max 10 µM) 0.297

Do the same for Cc1nc(-c2cn3c(n2)-c2ccc(-c4cnn(C(C)(C)C(N)=O)c4)cc2OCC3)n(C(C)C)n1 [Taselisib] + O=C(Nc1ccc2[nH]nc(-c3ccncc3)c2c1)[C@@H]1CCN(CC(=O)N2CCN(c3ccc(-c4ncccn4)cc3)CC2)C1 [SCH772984] (first compound max 10 µM, 7x7, partner max 5 µM) please 0.818

Do the same for COc1nnc2ccc(N3CCC(c4ccc(OCCN5CCN(C)C(=O)[C@H]5C)cc4)CC3)nn12 [AZD5153] + C[C@@H]1COCCN1C2=NC(=NC(=C2)C3(CC3)[S@](=N)(=O)C)C4=C5C=CNC5=NC=C4 [AZD6738] (first compound max 1 µM, 7x7, partner max 10 µM) please 0.748

New cases:
What is its combination Emax for PEO1 (Ovarian Carcinoma)? Entry: CC1(C)CCC(CN2CCN(c3ccc(C(=O)NS(=O)(=O)c4ccc(NCC5CCOCC5)c([N+](=O)[O-])c4)c(Oc4cnc5[nH]ccc5c4)c3)CC2)=C(c2ccc(Cl)cc2)C1 [Venetoclax] + C1CN(CCC1(C(=O)N[C@@H](CCO)C2=CC=C(C=C2)Cl)N)C3=NC=NC4=C3C=CN4 [Capivasertib] (first compound max 1 µM, 7x7, partner max 3 µM) 0.19

Do the same for CN(CCO)CC[C@H](CSc1ccccc1)Nc1ccc(S(=O)(=O)NC(=O)c2ccc(N3CCC([C@@H](O)c4ccccc4-c4ccc(Cl)cc4)CC3)cc2)cc1S(=O)(=O)C(F)(F)F [AZD4320] + C[C@@H](Nc1cc(F)cc(F)c1)c1cc(C(=O)N(C)C)cc2c(=O)cc(N3CCOCC3)oc12 [AZD8186] (first compound max 1 µM, 7x7, partner max 3 µM) please 0.613

Do the same for CC1(C)CCC(CN2CCN(c3ccc(C(=O)NS(=O)(=O)c4ccc(NCC5CCOCC5)c([N+](=O)[O-])c4)c(Oc4cnc5[nH]ccc5c4)c3)CC2)=C(c2ccc(Cl)cc2)C1 [Venetoclax] + C=CCn1c(=O)c2cnc(Nc3ccc(N4CCN(C)CC4)cc3)nc2n1-c1cccc(C(C)(C)O)n1 [AZD1775] (first compound max 1 µM, partner max 1 µM) please 0.337

Do the same for CC1(C)CCC(CN2CCN(c3ccc(C(=O)NS(=O)(=O)c4ccc(NCC5CCOCC5)c([N+](=O)[O-])c4)c(Oc4cnc5[nH]ccc5c4)c3)CC2)=C(c2ccc(Cl)cc2)C1 [Venetoclax] + Cc1cc2ncnn2cc1Nc1ncc2c(n1)n(C1CCOCC1)c(=O)n2C [AZD7648] (first compound max 1 µM, 7x7, partner max 10 µM) please 0.163

* * *

system: LU-165 (Small Cell Lung Carcinoma); assay: Bliss excess, mean over the matrix (fraction); higher = more synergy
valueType: Bliss excess
Could you respond with only the numeric value?

Name the recorded Bliss excess for C[C@@H](Oc1cc(-c2cnn(C3CCNCC3)c2)cnc1N)c1c(Cl)ccc(F)c1Cl [Crizotinib] + Cn1cnc2c(F)c(Nc3ccc(Br)cc3Cl)c(C(=O)NOCCO)cc21 [Selumetinib] (first compound max 10 µM, 7x7, partner max 10 µM) . -0.082

Do the same for Cc1cc2ncnn2cc1Nc1ncc2c(n1)n(C1CCOCC1)c(=O)n2C [AZD7648] + COc1cc([C@@H]2c3cc4c(cc3[C@@H](O[C@@H]3O[C@@H]5CO[C@@H](C)O[C@H]5[C@H](O)[C@H]3O)[C@H]3COC(=O)[C@H]23)OCO4)cc(OC)c1O [Etoposide] (first compound max 10 µM, 7x7, partner max 10 µM) please -0.0132

Do the same for CC(=O)c1c(C)c2cnc(Nc3ccc(N4CCNCC4)cn3)nc2n(C2CCCC2)c1=O [Palbociclib] + CC1(C)CCC(CN2CCN(c3ccc(C(=O)NS(=O)(=O)c4ccc(NCC5CCOCC5)c([N+](=O)[O-])c4)c(Oc4cnc5[nH]ccc5c4)c3)CC2)=C(c2ccc(Cl)cc2)C1 [Venetoclax] (first compound max 10 µM, 7x7, partner max 1 µM) please -0.0502

New cases:
Name the recorded Bliss excess for NC1(C(=O)N[C@@H](CCO)c2ccc(Cl)cc2)CCN(c2ncnc3[nH]ccc23)CC1 [Capivasertib] + CC(C)n1c(=O)n(C)c2cnc3cc(F)c(-c4ccc(OCCCN5CCCCC5)nc4)cc3c21 [AZD1390] (first compound max 10 µM, 7x7, partner max 0.3 µM) . -0.0456

* * *

test system: 22RV1 (Prostate Carcinoma); assay: Bliss excess, mean over the matrix (fraction); higher = more synergy
valueType: Bliss excess
Could you respond with only the numeric value?

Name the recorded Bliss excess for Cc1c2c(nn1C)CSCc1cc(n(C)n1)CSc1cc(c3ccccc3c1)OCCCc1c(C(=O)O)n(C)c3c-2c(Cl)ccc13 [AZD5991] + C=CCn1c(=O)c2cnc(Nc3ccc(N4CCN(C)CC4)cc3)nc2n1-c1cccc(C(C)(C)O)n1 [AZD1775] (first compound max 1 µM, partner max 1 µM) . -0.003

Do the same for COc1nnc2ccc(N3CCC(c4ccc(OCCN5CCN(C)C(=O)[C@H]5C)cc4)CC3)nn12 [AZD5153] + CCN(CCO)CCCOc1ccc2c(Nc3cc(CC(=O)Nc4cccc(F)c4)[nH]n3)ncnc2c1 [AZD2811] (first compound max 1 µM, 7x7, partner max 1 µM) please -0.0252

Do the same for COc1cc2c(cc1OCCCCCOc1cc3c(cc1OC)C(=O)N1C=C(C)C[C@H]1C=N3)N=C[C@@H]1CC(C)=CN1C2=O [SG3199] + O=C(c1cc(Cc2n[nH]c(=O)c3ccccc23)ccc1F)N1CCN(C(=O)C2CC2)CC1 [Olaparib] (first compound max 0.001 µM, 7x7, partner max 10 µM) please -0.0421

New cases:
Name the recorded Bliss excess for Cn1cnc2c(F)c(Nc3ccc(Br)cc3Cl)c(C(=O)NOCCO)cc21 [Selumetinib] + C[C@@H]1COCCN1C2=NC(=NC(=C2)C3(CC3)[S@](=N)(=O)C)C4=C5C=CNC5=NC=C4 [AZD6738] (first compound max 10 µM, 7x7, partner max 10 µM) . 0.0144

Do the same for C[C@@H](Nc1cc(F)cc(F)c1)c1cc(C(=O)N(C)C)cc2c(=O)cc(N3CCOCC3)oc12 [AZD8186] + C1CN(CCC1(C(=O)N[C@@H](CCO)C2=CC=C(C=C2)Cl)N)C3=NC=NC4=C3C=CN4 [AZD5363] (first compound max 10 µM, 7x7, partner max 10 µM) please -0.0401

* * *

test system: IM-9 (Non-Cancerous); test: Bliss excess, mean over the matrix (fraction); higher = more synergy
Reported Bliss excess values follow for various compounds

Name the recorded Bliss excess for Cn1cnc2c(F)c(Nc3ccc(Br)cc3Cl)c(C(=O)NOCCO)cc21 [Selumetinib] + CCN(CCO)CCCOc1ccc2c(Nc3cc(CC(=O)Nc4cccc(F)c4)[nH]n3)ncnc2c1 [AZD2811] (first compound max 10 µM, 7x7, partner max 1 µM) . -0.032

Then this compound:
Name the recorded Bliss excess for N#Cc1cnc(Nc2cc(NC[C@H]3CNCCO3)c(C(F)(F)F)cn2)cn1 [SRA737] + C=CCn1c(=O)c2cnc(Nc3ccc(N4CCN(C)CC4)cc3)nc2n1-c1cccc(C(C)(C)O)n1 [AZD1775] (first compound max 10 µM, partner max 1 µM) . 0.156

* * *

system: EW-16 (Ewing's Sarcoma); test: Bliss excess, mean over the matrix (fraction); higher = more synergy
Reported Bliss excess values follow for various compounds

# annotated cases, reported Bliss excess shown
Name the recorded Bliss excess for CC(=O)c1c(C)c2cnc(Nc3ccc(N4CCNCC4)cn3)nc2n(C2CCCC2)c1=O [Palbociclib] + Cn1cnc2c(F)c(Nc3ccc(Br)cc3Cl)c(C(=O)NOCCO)cc21 [Selumetinib] (first compound max 10 µM, 7x7, partner max 10 µM) . -0.0095

Do the same for CC1(C)CCC(CN2CCN(c3ccc(C(=O)NS(=O)(=O)c4ccc(NCC5CCOCC5)c([N+](=O)[O-])c4)c(Oc4cnc5[nH]ccc5c4)c3)CC2)=C(c2ccc(Cl)cc2)C1 [Venetoclax] + C[C@@H](Nc1cc(F)cc(F)c1)c1cc(C(=O)N(C)C)cc2c(=O)cc(N3CCOCC3)oc12 [AZD8186] (first compound max 1 µM, 7x7, partner max 3 µM) please -0.0278

Do the same for Cc1cc2ncnn2cc1Nc1ncc2c(n1)n(C1CCOCC1)c(=O)n2C [AZD7648] + CCN(CCO)CCCOc1ccc2c(Nc3cc(CC(=O)Nc4cccc(F)c4)[nH]n3)ncnc2c1 [AZD2811] (first compound max 10 µM, 7x7, partner max 1 µM) please 0.0436

Do the same for CN(CCO)CC[C@H](CSc1ccccc1)Nc1ccc(S(=O)(=O)NC(=O)c2ccc(N3CCC([C@@H](O)c4ccccc4-c4ccc(Cl)cc4)CC3)cc2)cc1S(=O)(=O)C(F)(F)F [AZD4320] + C[C@@H]1COCCN1C2=NC(=NC(=C2)C3(CC3)[S@](=N)(=O)C)C4=C5C=CNC5=NC=C4 [AZD6738] (first compound max 1 µM, 7x7, partner max 10 µM) please -0.101

Do the same for CCN(CCO)CCCOc1ccc2c(Nc3cc(CC(=O)Nc4cccc(F)c4)[nH]n3)ncnc2c1 [AZD2811] + C=CCn1c(=O)c2cnc(Nc3ccc(N4CCN(C)CC4)cc3)nc2n1-c1cccc(C(C)(C)O)n1 [AZD1775] (first compound max 1 µM, partner max 1 µM) please -0.0134

Then this compound:
Name the recorded Bliss excess for CN(CCO)CC[C@H](CSc1ccccc1)Nc1ccc(S(=O)(=O)NC(=O)c2ccc(N3CCC([C@@H](O)c4ccccc4-c4ccc(Cl)cc4)CC3)cc2)cc1S(=O)(=O)C(F)(F)F [AZD4320] + C[C@@H](Nc1cc(F)cc(F)c1)c1cc(C(=O)N(C)C)cc2c(=O)cc(N3CCOCC3)oc12 [AZD8186] (first compound max 1 µM, 7x7, partner max 3 µM) . -0.0129

Measured values drawn from the supplement of paper PMC11061612 for this set.
